- Experiment summary: chemical genetic growth profiling, strain panel (AID 1159580);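 note: tested at 20 µM; growth read once vehicle control cultures reached saturation at 30 °C; 1 = growth at the plate median or of vehicle wells; lower values mean less growth of the strain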
- Recorded conditions: S. cerevisiae deletion strains, growth OD, locus YIL147C, strain SLN1
The campaign covered roughly 5,500 compounds. About 2,000 (36%) were called active. Another 18% or so got no clear call; they are omitted. Cut-off read from the data, not from the text of the source: active = normalized growth mostly below about 0.91 (no sharp cut-off); inconclusive = no clear call, values can overlap the other calls; inactive = mostly above about 0.92. Some of the results follow.
One label from this list, please: 1 (active), -1 (inactive)

Example entries and their recorded answers appear below.
                                   molecule  classification
0  COc1ccc(NC(=O)O/N=C(/N)c2ccc(Oc3c(Cl)cncc3Cl)cc2)cc1              -1
1  N#C/C(=N/Nc1ccccc1Cl)S(=O)(=O)c1ccc(Cl)cc1              -1
2  N#C/C(=C\c1ccccc1Sc1ccc(Cl)cc1)S(=O)(=O)c1ccccn1              -1
3  Cc1cc(SCc2[nH]nc3oc(=O)cc(C)c23)c(Cl)cc1Cl              -1
4  O=C(Oc1cc(Cl)c(Cl)cc1Cl)C1c2ccccc2Oc2ccccc21              -1
5  Cn1c([N+](=O)[O-])cnc1/C=C(\C#N)C(=O)Nc1ccc(F)cc1               1
6  Cn1cncc1S(=O)(=O)/C(C#N)=C/c1ccccc1Sc1ccc(Cl)cc1              -1
7  Cc1c(Cl)cccc1NC(=S)N1CCCN(c2nc3ccc(Cl)cc3s2)CC1              -1
8       C=CC(=O)N1CCc2cc([N+](=O)[O-])ccc21               1

Please look at the following molecule next.
Data request: Per the records of this test, what outcome belongs to Cc1ccccc1C(=O)N1CCc2c([nH]c3ccccc23)C1C(F)(F)F (stereo not given) ?
Data returned: -1

====

- Experiment summary: chemical genetic growth profiling, strain panel (AID 1159580);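 note: tested at 20 µM; growth read once vehicle control cultures reached saturation at 30 °C; 1 = growth at the plate median or of vehicle wells; lower values mean less growth of the strain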
- Recorded conditions: S. cerevisiae deletion strains, growth OD, locus YOR270C, strain vph1, stronger effect = lower value
In all, about 5,500 compounds went through this assay and about 2,000 (36%) were called active. Not shown: some 18% with an inconclusive outcome. The list shows a part of the results.
Measured attribute: normalized growth
Numbers only.

Compound	normalized growth
C=CCc1ccc2c(c1)OCO2	1.07
NC(N)=Nc1nc(CSCCC(N)=NS(N)(=O)=O)cs1	0.966
COc1cc(O)c(C(=O)c2ccccc2)cc1O	0.974
CCN(CC)C(=S)SSC(=S)N(CC)CC	0.0967
OCC(O)Cc1ccc2c(c1)OCO2 (configuration not stated)	1.03

Quick request: normalized growth for each listed item, please.
1. CC(=O)O[C@H]1C(=O)[C@@]2(C)C([C@H](OC(=O)c3ccccc3)[C@]3(O)C[C@H](OC(=O)[C@H](O)[C@@H](NC(=O)c4ccccc4)c4ccccc4)C(C)=C1C3(C)C)[C@]1(OC(C)=O)CO[C@@H]1C[C@@H]2O (some centres not stated)
2. COc1ccc(C(=O)c2ccccc2O)c(O)c1

Data returned:
1: 0.866; 2: 0.469

====

- Experiment summary: chemical genetic growth profiling, strain panel (AID 1159580);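 note: tested at 20 µM; growth read once vehicle control cultures reached saturation at 30 °C; 1 = growth at the plate median or of vehicle wells; lower values mean less growth of the strain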
- Recorded conditions: S. cerevisiae deletion strains, growth OD, locus YDL101C, strain DUN1
About 2,000 (36%) of roughly 5,500 compounds were called active. Not shown: some 18% with an inconclusive outcome. Rule as the data show it: active = normalized growth mostly below about 0.91 (no sharp cut-off); inconclusive = no clear call, values can overlap the other calls; inactive = mostly above about 0.92. The list shows a part of the results.
Your answer must be one of the following: active, inactive

                         chemical_structure  classification
0                          O=c1ccc2ccccc2o1        inactive
1  N#C/C(=C\c1ccccc1Sc1ccc(Cl)cc1)S(=O)(=O)c1ccccn1        inactive
2  Cc1c(Cl)cccc1NC(=S)N1CCCN(c2ccc(C(F)(F)F)cc2[N+](=O)[O-])CC1        inactive
3  CC1=CC(=O)C(CCOCCC2=CC(=O)C(C)=CC2=O)=CC1=O        inactive
4  Cc1c(Cl)cccc1NC(=S)N1CCCN(c2nc3ccc(Cl)cc3s2)CC1        inactive

Data request: Entry `Cn1cncc1S(=O)(=O)/C(C#N)=C/c1ccccc1Sc1ccc(Cl)cc1` : call = ?
Data returned: inactive

Data request: Please let me know the test result on file for `CC(C)(C)NC(=O)N1CCN(c2nc3ccc(Cl)cc3s2)CC1` .
Data returned: inactive
